Would you kindly list logP for each of these compounds?
The answer should be a number; do not append a unit.

Return the recorded logP value; entry: "Clc1ccccn1"
1.22

Recall and state the measured logP for "NC(=O)c1cccc(N)c1" .
-0.33

// Input: C=CCC(NC(C)=O)C(N)=O (stereo not drawn) . Output its logP only.
-0.86

Tell me its logP given CCC(=O)OC1(c2ccccc2)CC(C)N(C)CC1C (stereo not drawn) as the entry.
3.13

Supply recorded logP for "COC(=O)c1ccc(-c2ncc([N+](=O)[O-])n2C)cc1" here.
1.63

// fetch logP given entry "CN(C)N=Nc1nc[nH]c1C(N)=O"
-0.24

Answer with reported logP of "O=NN1CCCCCC1"
0.92

// Input: "CNCC(=O)O" . Output its logP only.
-2.78

* * *

Please provide measured logP for the entries that follow.
A bare number is all that is needed in reply.

Quick one: give measured logP for "CC(C(=O)O)(c1ccccc1)c1ccccc1"
2.69

Give me measured logP, please, for this compound: "O=C(NP(=O)(N1CC1)N1CC1)c1ccc(I)cc1"
2.25

Quickly give me recorded logP for "CCOc1ccc(NC(=O)OC2CCCC2)cc1OCC"
3.33

Tell me its logP given COc1cc(S(C)=O)ccc1-c1nc2nnccc2[nH]1 (stereo not given) as the entry.
0.23

Hello, please tell me recorded logP for this one: CCCCSCS(=O)CC(C)NC(=O)C=Cc1c(C)[nH]c(=O)[nH]c1=O (stereo not given)
0.82

Determine from records and report logP for CCC(C(c1ccc(OC)cc1)c1ccc(OC)cc1)[N+](=O)[O-] (stereo not given)
4.45

State its logP for this compound: "COC(=O)c1ccc(C(=O)OC)cc1"
2.25

Give the reported value of logP for this record: "CCCOC(=O)c1cc(O)c(O)c(O)c1"
1.8

Check the records and state logP for "COCCN(C)c1ccc(Nn2c(C)ccc2C)nn1"
2.16

Note logP for the compound shown: "CC(C)(c1ccc(O)cc1)c1ccc(O)cc1"
3.32

Using known records, supply logP for CCCCC(NC(Cc1ccccc1)C(=O)N1CCC(OCOC)CC1)C(=O)NC(CC1CCCCC1)C(O)CC(C(=O)NCCNc1noc(N)n1)C(C)C (stereo not given)
4.11

Note logP for the compound shown: CN1C(CCl)Nc2cc(Cl)c(S(N)(=O)=O)cc2S1(=O)=O (stereo not given)
1.42

For the compound "Nc1cc(C(F)(F)F)ccc1Cl" , give its measured logP value.
3.06

Query logP for "O=C(O)c1ccc2oc3ccccc3c(=O)c2c1"
3.12

Write down logP measured for item "FC(F)(Cl)C(F)(Cl)Cl"
3.16

Let me know recorded logP for "O=C1CCCO1" , thanks.
-0.64

Provide measured logP value, entry: "CNC(=O)OCc1cccc(COC(=O)NC)n1"
0.24

Give me measured logP, please, for this compound: "COc1ccc([N+](=O)[O-])cc1N"
1.47

Provide logP value for the following compound: "Cc1cccc(N2C(=O)CCC2=O)c1"
0.57

Look up and report measured logP for this entry: "O=C(O)COc1ccc(Cl)c(I)c1"
3.1

Return value of logP for input "CCCCCOc1ccc(O)cc1" , no commentary.
3.5

Please list logP recorded for the compound "CC(C)CCOc1cc(N)ccc1C(=O)O"
2.3

Report logP for "COc1ccc2c(c1)N(CCCN(C)C)c1ccccc1S2"
4.9

Name the recorded logP of the compound listed here: "Fc1cc(F)c(F)c(F)c1F"
2.53

Consider the compound "Ic1nc(I)c(I)[nH]1" . State its measured logP.
2.78

Specify reported logP for the compound shown: "CC(C)C(=O)c1ccccc1"
2.73

Return logP for the following compound: CNP(=O)(OC)Oc1ccccc1Cl (stereo not given)
1.61

Could you please provide reported logP for "CNC(=O)ON=CC(C)(C)SC" ? Thanks!
1.13

Check the records and state logP for "CCC1C(=O)NC(=O)NC1=O"
-0.35

Name the recorded logP of the item "NC(=O)CCc1cccnc1" in your answer.
-0.26

Give recorded logP. "CCNC"
0.15

Specify reported logP for the compound shown: CCCC(=NOCC)C1C(=O)CC2(CCC(CC)CC2)OC1=O (stereo not given)
4.48

Give the measured logP for O=P1(NCCCl)OCCCN1CCCl (stereo not given)
0.86

Please supply the value of reported logP for the item "CC(C)OCCO"
0.05

Please give measured logP of the following entry: "Cc1nc(N)nc(N)c1C12CC3CC(CC(C3)C1)C2"
2.64

Specify logP for "CCCCOc1ccc(C(=O)O)cc1" and stop.
3.57

// fetch logP given entry "BrC1CCCCC1"
3.2

Identify logP associated with the compound "COC(=O)c1ccc(OC)cc1"
2.27

Tell me logP reported for "c1ccc2nc3ccccc3nc2c1"
2.84

Provide logP value for the following compound: "O=C(Cc1ccccc1)c1ccccc1"
3.18

Provide logP value for the following compound: "CCCCCNc1nc(NCC)nc(SC(F)F)n1"
4.71

Indicate the recorded logP value for this compound: "Cc1cc(-c2ccccc2)nnc1NCCN1CCOCC1"
2.03

Report measured logP; entry is "CN(C)c1ccc2cccnc2c1"
2.71

Quick one: give measured logP for "CC(=O)Oc1ccccc1I"
2.55

Given "O=C1OC(=O)c2ccccc21" , respond with its logP.
1.6

For the compound CCc1cccc(C)c1N(C(=O)CCl)C(C)COC (stereo not given) , give its measured logP value.
3.13

Give me measured logP, please, for this compound: "COC1=C(OC)C(=O)C(C)=C(C)C1=O"
1.26

Consider the compound COC(C)(C)CCCC(C)C/C=C/C(C)=C/C(=O)OC(C)C (stereo not given) . State its measured logP.
5.5

Answer with the recorded logP of "C=CCNC(=O)NCC=C" only.
0.64

Return the recorded logP value; entry: "CCCc1ccc(C(=O)OCCN(C)C)cc1"
3.63

Entry "FC(F)(F)c1nc2ccc(Br)cc2[nH]1" needs its logP filled in; supply it.
3.57

Provide measured logP value, entry: "C=CC(=O)OCC(C)C"
2.22

# return recorded logP for input "C[C@]12CCC(=O)C=C1CC[C@@H]1[C@@H]2CC[C@]2(C)C(=O)CC[C@@H]12"
2.75

Please indicate logP recorded for "CC/C(=C\c1ccccc1)[N+](=O)[O-]"
2.86

Return logP for the following compound: "Cn1cc[nH]c1=S"
-0.34

Kindly indicate its recorded logP. Item: "OCc1cccc(O)c1"
0.49

Quickly give me recorded logP for "CN(C)/N=N/c1ccc2n[nH]cc2c1"
2.36

Report measured logP; entry is "C[C@@H](O)c1ccccc1"
1.42

# return recorded logP for entry "Cc1cccc2c(N)cnnc12"
1.57

Give reported logP value for "Nc1ccc(C(=O)Oc2ccccc2)c(O)c1"
3.15
